biological target: STAT3-SH2 domain (Homo sapiens); construct: First, 75 nM of each SH2-containing protein was incubated with the test compound for 15 min; experiment: AlphaScreen-based assay, STAT3-SH2 domain / pTyr peptide binding; settings: read-out: STAT3 IC50 (μM) ± SD
Sequence (P40763 whole entry, the tested form may be a part): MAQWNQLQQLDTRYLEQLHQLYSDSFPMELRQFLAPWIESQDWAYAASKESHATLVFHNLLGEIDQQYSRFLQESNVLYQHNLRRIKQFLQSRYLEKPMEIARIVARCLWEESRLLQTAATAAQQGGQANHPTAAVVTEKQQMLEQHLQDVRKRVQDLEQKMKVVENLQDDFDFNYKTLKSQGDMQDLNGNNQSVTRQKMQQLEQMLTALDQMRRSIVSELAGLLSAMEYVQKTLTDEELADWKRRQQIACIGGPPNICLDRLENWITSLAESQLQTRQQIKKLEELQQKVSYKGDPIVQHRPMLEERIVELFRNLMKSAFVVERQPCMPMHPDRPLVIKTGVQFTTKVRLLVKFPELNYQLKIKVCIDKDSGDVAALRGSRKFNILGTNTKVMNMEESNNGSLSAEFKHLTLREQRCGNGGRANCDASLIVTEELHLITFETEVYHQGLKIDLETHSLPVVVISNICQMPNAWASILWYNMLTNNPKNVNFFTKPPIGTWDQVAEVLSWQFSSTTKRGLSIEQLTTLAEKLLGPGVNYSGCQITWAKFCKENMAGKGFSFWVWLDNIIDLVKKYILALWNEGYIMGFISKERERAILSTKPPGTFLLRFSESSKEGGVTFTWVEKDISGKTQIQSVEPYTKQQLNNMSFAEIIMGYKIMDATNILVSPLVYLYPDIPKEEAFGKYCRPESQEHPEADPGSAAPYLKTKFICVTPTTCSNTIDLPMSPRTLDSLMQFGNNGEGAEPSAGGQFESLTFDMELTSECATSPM
Counter-ions that a name gives are not always drawn.
Experimental readout: IC50

- Compound: "CS(=O)(=O)SCCOC(=O)Cc1ccccc1Nc1c(Cl)cccc1Cl"
  IC50: "0.5 µM"

Entry CS(=O)(=O)SCCO [Compound 9, S-(2-hydroxyethyl) methanesulfonothioate, reference compound] — recorded IC50 = > 30 µM

Entry CCCC(CCC)C(=O)O [VA, valproic acid, reference compound] — recorded IC50 = > 30 µM

Entry CC1=C(CC(=O)OCCSS(C)(=O)=O)c2cc(F)ccc2/C1=C\c1ccc([S+](C)[O-])cc1 (stereo not shown) — recorded IC50 = 0.5 µM

Entry O=C(O)Cc1ccccc1Nc1c(Cl)cccc1Cl [Diclofenac sodium salt, reference compound] — recorded IC50 = > 30 µM

Entry CS(=O)(=O)CSC(=O)c1ccc(N)cc1O — recorded IC50 = > 30 µM
